Recorded measurements of growth, one per entry
# Test system: MOLT-4 leukemia
# test details: NCI-60 one-dose screen, 48 h (100 = growth as untreated, 0 = no growth, -100 = all killed)
# protocol conditions: 10 µM unless noted
This is part of a sample that, as a whole, favours compounds with a hit. Of some 83,000 tested, about 20% had one in any assay.
Lab book: enter the figure in %, no units written.

As a guide, the following entries are already answered.
C#C[C@]1(O)CC[C@H]2[C@@H]3CC=C4c5sc(-c6ccc([N+](=O)[O-])cc6)nc5CC[C@]4(C)[C@H]3CC[C@@]21C ... 10
O=S(=O)(Nc1cccc(-n2cnc3cc(-c4ccc(O)cc4)ccc32)c1)C1CC1 ... 13.7

### Prompt // lookup growth for COc1cc2c3c(n(CCCN4CCC[C@@H]4CO)c(=O)c2cc1OC)-c1cc2c(cc1C3=O)OCO2
### Response 5.36

### Prompt Find the recorded growth belonging to CC(C)CSc1nc(NCCc2c[nH]c3ccccc23)c(C#N)c(-c2ccccc2)n1 and report it.
### Response 30.7

### Prompt Given the entry C=C1CC[C@@H]2[C@]3(C)COC(c4cn[nH]c4-c4ccc(C)cc4)O[C@@H]3CC[C@@]2(C)[C@@H]1C/C=C1/C(=O)OCC1O (stereo partly drawn) , report its measured growth.
### Response 13.9

### Prompt Requested read-out: growth. Entry: CN(C)c1nc(NCCNS(=O)(=O)c2ccc(C3=Nc4c(N)nc(N)nc4NC(c4ccc(C(F)(F)F)cc4)C3)cc2)nc(Nc2ccc(F)cc2)n1 (stereo not drawn)
### Response 9.04

### Prompt What value of growth has been recorded for this entry: O=c1[nH]c2ccccc2cc1CSc1cccc(Nc2nccc(-c3ccc4ccccc4c3)n2)c1
### Response 65.9

### Prompt Look up growth: CSc1ccc(NC(=O)c2ccc3nnn(/C(C#N)=C/c4ccccn4)c3c2)cc1
### Response 6.04
